- run description: Pharmacokinetics of SR13668 in dogs after i.v. and oral gavage dosing
- Assay type: in vivo, beagle dogs
- condition notes: male, beagle, dog, plasma, po, 4.68 mg/kg, dogs; 93.6 mg/m^2 (4.68 mg/kg) oral gavage, Solutol, seventh daily dose; fasted

| compound | Cmax (ng/mL) |
| --- | --- |
| CCOC(=O)c1ccc2[nH]c3c(OC)c4[nH]c5ccc(C(=O)OCC)cc5c4cc3c2c1 [SR13668] | 113 |

----------
- run description: Pharmacokinetics of SR13668 in monkeys after i.v. and oral gavage dosing
- Type: in vivo, cynomolgus monkeys (macaca fasicularis)
- condition notes: male, cynomolgus monkey, plasma, iv, 7.02 mg/kg, plasma, 84.2 mg/m^2 (7.02 mg/kg) i.v. single dose, DMSO:PEG300 15:85 v/v, fed
reported endpoint: Cmax (ng/mL)

| structure smiles string | test value |
| --- | --- |
| CCOC(=O)c1ccc2[nH]c3c(OC)c4[nH]c5ccc(C(=O)OCC)cc5c4cc3c2c1 | 6090 |
